Catalogue of IC50 readings, one per entry.
# Test system: Escherichia coli
# Assay method text: Inhibitory activity against tetracycline uptake in everted membrane vesicles derived from Tc-resistant Escherichia coli bearing class B tetracycline resistance efflux protein (Tet)
# Assay type: functional
Report only the number, with the unit µM understood.

Compound	Value units	IC50
CN(C)[C@@H]1C(=O)C(C(N)=O)=C(O)[C@@]2(O)C(O)=C3C(=O)c4c(ccc([N+](=O)[O-])c4O)CC3CC12 (some centres undefined)	µM	12.3
CN(C)[C@@H]1C(=O)C(C(N)=O)=C(O)[C@@]2(O)C(O)=C3C(=O)c4c(O)cccc4[C@H](C[S+]([O-])c4ccccc4)C3CC12 (some centres undefined)	µM	0.7
COc1cc(O)c2c(c1Cl)CC1CC3[C@H](N(C)C)C(=O)C(C(N)=O)=C(O)[C@@]3(O)C(O)=C1C2=O (some centres undefined)	µM	19.5
CC(=O)SC[C@H]1c2cccc(O)c2C(=O)C2=C(O)[C@]3(O)C(O)=C(C(N)=O)C(=O)[C@@H](N(C)C)C3[C@@H](O)C21 (some centres undefined)	µM	4.6
CN(C)c1ccc(O)c2c1CC1CC3[C@H](N(C)C)C(=O)C(C(N)=O)=C(O)[C@@]3(O)C(O)=C1C2=O (some centres undefined)	µM	2.3

Next compound, please.
Input: Fill in: IC50 of CN(C)[C@@H]1C(=O)C(C(N)=O)=C(O)[C@@]2(O)C(O)=C3C(=O)c4c(O)cccc4[C@H](CSCCCCl)C3[C@H](O)C12 (some centres undefined) is ___
Output: 0.6

---

# System: Escherichia coli
# Assay method text: Inhibitory activity against tetracycline uptake in everted membrane vesicles derived from Tc-resistant Escherichia coli bearing class B tetracycline resistance efflux protein (Tet)
# Format: functional
Recorded IC50 by entry

Compound	IC50
C=C1c2cccc(O)c2C(=O)C2(Cl)C(=O)[C@]3(O)C(O)=C(C(N)=O)C(=O)[C@@H](N(C)C)C3CC12 (some centres not stated)	> 75 µM

Input: Record request: IC50 value, item O=CCC1CC(=O)c2c(O)cccc2S1 (configuration not stated)
Output: > 75 µM

Input: Would you kindly repeat that for `CC(=O)OC1=C(Sc2ccccc2)C[C@H]2Cc3cc4cccc(O)c4c(O)c3C(=O)[C@H]2C1` ?
Output: > 150 µM

Input: Check CC(=O)C1CCC2C(=O)C3=C(O)c4c(O)ccc(O)c4CC3CC2C1 (configuration not stated) too.
Output: > 75 µM

Input: Input COC(=O)C12Oc3ccc(-c4ccc5c(c4O)C(O)=C4C(=O)CC(C)C(O)C4(C(=O)OC)O5)c(O)c3C(O)=C1C(=O)CC(C)C2O (configuration not stated)
Output: > 75 µM

Input: And the next one, O=C1c2ccc(O)c(O)c2C(=O)c2c(O)ccc(O)c21 [QUINALIZARIN] ?
Output: > 150 µM

Input: One more compound: O=CCC1CC(=O)c2c(O)ccc(Cl)c2S1 (configuration not stated)
Output: > 75 µM

Input: Also check CN(C)c1ccc2c(c1O)C(=O)C1=C(O)[C@]3(O)C(O)=C(C(N)=O)C(=O)[C@@H](N(C)C)C3CC1C2 (some centres not stated)
Output: 15.4 µM

Input: Moving on to COC(C(=O)[C@@H](O)C(C)O)C1Cc2cc3cc(O)c(C)c(O)c3c(O)c2C(=O)C1O (some centres not stated)
Output: > 100 µM

Input: Try this compound too: COC(C(=O)[C@@H](O)[C@@H](C)O)C1Cc2cc3cc(O)cc(O)c3c(O)c2C(=O)C1O (some centres not stated)
Output: > 100 µM

Input: What would you report for CN(C)[C@@H]1C(=O)C(C(N)=O)=C(O)[C@@]2(O)C(O)=C3C(=O)c4c(O)cccc4[C@H](CS)C3[C@H](O)C12 (some centres not stated) ?
Output: 4.6 µM

Input: Please give the result for COc1cc(O)c2c(c1)C(=O)c1cc3c(c(O)c1C2=O)C(OC1OC(C)C(OC)C(O)C1OC)C(OC)C(C)(O)C3=O (configuration not stated) too.
Output: > 75 µM

Input: What would you report for CN(C)[C@@H]1C(=O)C(C(N)=O)=C(O)[C@@]2(O)C(=O)C3C(=O)c4c(O)ccc(Cl)c4[C@@](C)(O)C3CC12 (some centres not stated) ?
Output: > 75 µM

Input: Again, but for Cc1cc(O)c2c(c1O)C(=O)c1cc(O)cc(O)c1C2=O [CATENARIN]
Output: > 150 µM

Input: What about this compound? CC1CC(=O)C2=C(O)c3c(O)ccc(O)c3CC2C1 (configuration not stated)
Output: > 130 µM

Input: Please answer likewise for O=C(O)CC1CC(=O)c2c(O)ccc(Cl)c2S1 (configuration not stated)
Output: > 150 µM

Input: Could you do the same for CN(C)[C@@H]1C(=O)C(C(N)=O)=C(O)[C@@]2(O)C(O)=C3C(=O)c4c(O)cccc4SC3CC12 (some centres not stated) , please?
Output: 4.6 µM
